Values compiled from the supplement of paper PMC7214452.

tested on: AMO1 (cancer type: MM); assay: normalized area under the dose-response curve (viability relative to DMSO control) (fraction); higher = less sensitive (more viable cells); settings: exposure time not given
Structures can show the parent of a compound that is named as a salt.
Consider the following molecules; for each one, report its normalized area under the dose-response curve.
Reply with just the number.

// Input: COc1cc2/c(=N/c3ccc(Br)cc3F)nc[nH]c2cc1OCC1CCN(C)CC1 . Output its normalized area under the dose-response curve only.
0.767

// Input: Cn1c(CCCC(=O)O)nc2cc(N(CCCl)CCCl)ccc21 [Bendamustine hydrochloride] . Output its normalized area under the dose-response curve only.
0.849

// Input: CNC(=O)c1cc(Oc2ccc(NC(=O)Nc3ccc(Cl)c(C(F)(F)F)c3)c(F)c2)ccn1 . Output its normalized area under the dose-response curve only.
0.549

// Input: C[C@@H]1C[C@H]2[C@@H]3CCC4=CC(=O)C=C[C@]4(C)[C@@]3(F)[C@@H](O)C[C@]2(C)[C@@]1(O)C(=O)CO . Output its normalized area under the dose-response curve only.
0.762

###

system: Karpas-299 (cancer type: TCL); test: normalized area under the dose-response curve (viability relative to DMSO control) (fraction); higher = less sensitive (more viable cells); details: exposure time not given
Lab note: compare normalized area under the dose-response curve against 0.7. Equal or greater, write Condition met. Smaller, write Condition not met.

Assess whether reported normalized area under the dose-response curve for Nc1cc(C(F)(F)F)c(-c2cc(N3CCOCC3)nc(N3CCOCC3)n2)cn1 [Buparlisib] sits at 0.7 or higher.
Condition not met

Assess whether reported normalized area under the dose-response curve for Cc1cccc(/C=N/Nc2cc(N3CCOCC3)n3nc(-c4ccncc4)cc3n2)c1 [apy0201] sits at 0.7 or higher.
Condition not met

Assess whether reported normalized area under the dose-response curve for Cc1[nH]c(/C=C2\C(=O)Nc3ccc(F)cc32)c(C)c1C(=O)NCCN1CCCC1 [Toceranib] sits at 0.7 or higher.
Condition met

Assess whether reported normalized area under the dose-response curve for CC[C@H](Nc1ncnc2[nH]cnc12)c1nc2cccc(F)c2c(=O)n1-c1ccccc1 [Idelalisib] sits at 0.7 or higher.
Condition met

Assess whether reported normalized area under the dose-response curve for CCCS(=O)(=O)Nc1ccc(F)c(C(=O)c2c[nH]c3ncc(-c4ccc(Cl)cc4)cc23)c1F [Vemurafenib] sits at 0.7 or higher.
Condition met

Assess whether reported normalized area under the dose-response curve for CNC(=O)c1cc(Oc2ccc(NC(=O)Nc3ccc(Cl)c(C(F)(F)F)c3)c(F)c2)ccn1 [Regorafenib] sits at 0.7 or higher.
Condition met

Assess whether reported normalized area under the dose-response curve for CC1(C)CCC(CN2CCN(c3ccc(C(=O)NS(=O)(=O)c4ccc(NCC5CCOCC5)c([N+](=O)[O-])c4)c(Oc4cnc5[nH]ccc5c4)c3)CC2)=C(c2ccc(Cl)cc2)C1 [Venetoclax] sits at 0.7 or higher.
Condition met

Assess whether reported normalized area under the dose-response curve for O=C(/C=C\n1cnc(-c2cc(C(F)(F)F)cc(C(F)(F)F)c2)n1)NNc1cnccn1 [Selinexor] sits at 0.7 or higher.
Condition not met

Assess whether reported normalized area under the dose-response curve for Cc1ccc(F)c(NC(=O)Nc2ccc(-c3cccc4[nH]nc(N)c34)cc2)c1 [Linifanib] sits at 0.7 or higher.
Condition not met

Assess whether reported normalized area under the dose-response curve for CC(=O)O[C@H]1C(=O)[C@@]2(C)[C@H]([C@H](OC(=O)c3ccccc3)[C@]3(O)C[C@H](OC(=O)[C@H](O)[C@@H](NC(=O)c4ccccc4)c4ccccc4)C(C)=C1C3(C)C)[C@]1(OC(C)=O)CO[C@@H]1C[C@@H]2O [Paclitaxel] sits at 0.7 or higher.
Condition not met

Assess whether reported normalized area under the dose-response curve for COc1cc2nccc(Oc3ccc(NC(=O)C4(C(=O)Nc5ccc(F)cc5)CC4)cc3)c2cc1OC [Cabozantinib] sits at 0.7 or higher.
Condition met

Assess whether reported normalized area under the dose-response curve for CC(=O)c1c(C)c2cnc(Nc3ccc(N4CCNCC4)cn3)nc2n(C2CCCC2)c1=O [Palbociclib] sits at 0.7 or higher.
Condition met

Assess whether reported normalized area under the dose-response curve for C[C@@H]1C[C@H]2[C@@H]3CCC4=CC(=O)C=C[C@]4(C)[C@@]3(F)[C@@H](O)C[C@]2(C)[C@@]1(O)C(=O)CO [Dexamethasone] sits at 0.7 or higher.
Condition met
